molecular target: SpHof1; assay: SPOT peptide array binding signal intensity (averaged, normalized) (arbitrary units (background-subtracted, floor 0; scale differs between SH3 domains)); higher = stronger binding of the SH3 domain to the peptide
Lab note: compare SPOT peptide array binding signal intensity against 100. Equal or greater, write label 1. Smaller, write label 0.

Please tell me: is the binder "GPPPPLPPPLFPSSS" at or over 100 in terms of SPOT peptide array binding signal intensity?
label 0

Has "QDKEGIPPDQQRLIF" a recorded SPOT peptide array binding signal intensity greater than or equal to 100?
label 0

Reported SPOT peptide array binding signal intensity at or above 100? "ISPPASPPPEFDFSK"
label 0

Cited source for all entries: the supplement of paper PMC4466140
